Tested on: Caco-2
Experiment: cell viability relative to DMSO; higher = less toxic
Details: 72 h; 1 nM
// cell viability lookup, one value per entry
recorded.metric: cell viability (%)

molecule	uom	assay.value
O=c1[nH]c([C@@H]2CCCN2)nc2c1oc1ccc(Cl)cc12	%	96.9
C[C@]12CCC(=O)C=C1CC[C@@H]1[C@@H]2[C@@H](O)C[C@@]2(C)[C@H]1CC[C@]2(O)C(=O)COP(=O)(O)O [hydrocortisone-phosphate]	%	100
CC(C)(N)c1cc(C(=O)N[C@@H]2CCc3ccc(Oc4ccnc5c4CCC(=O)N5)cc3C2)cc(C(F)(F)F)c1	%	108
C[C@]12CCC(=O)C=C1C=C[C@@H]1[C@@H]2CC[C@@]2(C)[C@H]1CC[C@@]21CCC(=O)O1	%	96.6
COc1cccc(C=NCCN=Cc2cccc(OC)c2[O-])c1[O-].[Cl-].[Mn+3]	%	94.7
CSc1ccccc1Nc1nc(N2CCNCC2)nc2c(NCC3CC3)ncnc12	%	103
COc1ccccc1OCC(O)COC(N)=O (stereo not given)	%	102
O=C1CN(/N=C/c2ccc(-c3ccc([N+](=O)[O-])cc3)o2)C(=O)N1	%	110
O=C(O)CC(S)C(=O)O (stereo not given)	%	94
CN(C)c1ccc2c(c1)Sc1cc(N(C)C)ccc1N2	%	95.2
C[C@@H](NC(=O)[C@@H](N)Cc1ccc(O)cc1)C(=O)NCC(=O)N(C)[C@@H](Cc1ccccc1)C(=O)N[C@H](CO)CC[S+](C)[O-] (stereo not given in full)	%	98
COC1CCN(C(=O)c2cc(Cc3n[nH]c(=O)c4ccccc34)ccc2F)CC1	%	90.3
CC(C)(C)C(=O)C(Oc1ccc(Cl)cc1)n1ccnc1 (stereo not given)	%	108
CN1CCN(c2nc3ccccc3nc2Cl)CC1	%	89.4
c1ccc(CN2CCC3(CCc4ccccc43)CC2)cc1	%	96.9

---

Test system: HepG2
Experiment: cell viability relative to DMSO; higher = less toxic
Conditions: 72 h; 10 nM
Listing of entries alongside the reported cell viability.

molecule	cell viability
CC(C)C[C@H](NC(=O)[C@H](CCCCN)NC(=O)[C@H](CCCNC(=N)N)NC(=O)[C@H](C)NC(=O)[C@H](CO)NC(=O)[C@H](CCCCN)NC(=O)[C@H](CCCNC(=N)N)NC(=O)[C@H](C)NC(=O)CNC(=O)[C@@H](NC(=O)[C@H](Cc1ccccc1)NC(=O)CNC(=O)CNC(=O)[C@@H](N)Cc1ccccc1)[C@@H](C)O)C(=O)N[C@@H](C)C(=O)N[C@@H](CC(N)=O)C(=O)N[C@@H](CCC(N)=O)C(=O)O	97.4%
C[C@H](NC(=O)c1sccc1OCc1ccc(Cl)cc1)c1ccccc1	108%
C[N+]1([O-])[C@@H]2C[C@@H](OC(=O)[C@H](CO)c3ccccc3)C[C@H]1[C@@H]1O[C@@H]12 (stereo partly specified) [scopolamine-N-oxide]	93.1%
CS(=O)(=O)c1ccc(-c2cnc(NCc3ccco3)n3cnnc23)cc1	92.8%
Clc1cccc(C(c2ccc3[nH]cnc3c2)n2ccnc2)c1 (stereo unspecified)	104%
CCCCCCCCC(=O)NCc1cc(OC)c(O)cc1I [6-iodo-nordihydrocapsaicin]	110%

---

System: Caco-2
Test: relative viability EC50 (midpoint between 100% and the lowest measured viability); higher = less toxic
Details: 72 h
Let's look at some compounds and their measured relative viability EC50.
recorded.metric: relative viability EC50

compound	assay.value
OC(CCCN1CCCCC1)(c1ccccc1)c1ccccc1	> 10 µM
Cc1cccc(C)c1NC(=O)CN1CCCC1=O	> 10 µM
CCN(CC)C(=O)c1ccc(C2=CC3(CCNCC3)Oc3cccc(O)c32)cc1	> 10 µM
COc1cccc([C@@H](C)NCCCc2ccccc2Cl)c1	> 10 µM
O=S(=O)(O)c1ccc2[nH]c(-c3ccccc3)nc2c1	> 10 µM
O=C(/C=C/c1ccc(CN(CCO)CCc2c[nH]c3ccccc23)cc1)NO	0.083 µM
CCCCc1nc(C)c(CC(=S)N(C)C)c(=O)n1Cc1ccc(-c2ccccc2-c2nnn[nH]2)cc1	> 10 µM
O=c1[nH]c(=O)n([C@H]2C[C@H](O)[C@@H](CO)O2)cc1F	0.0088 µM
CCCC(C)NC(=O)c1ccc(Cl)c(Cl)c1 (stereo not given)	> 10 µM
Cc1cc(CN)cc(C)c1NC(=O)c1ccc(-c2cc(Cl)ccc2Cl)o1	> 10 µM
Cc1cc(Nc2cc(N3CCN(C)CC3)nc(Sc3ccc(NC(=O)C4CC4)cc3)n2)n[nH]1	> 10 µM
Cc1cccc(C)c1NC(=O)C1CCCCN1C (stereo not given) [mepivacaine]	> 10 µM
CSc1ccccc1Nc1nc(N2CCNCC2)nc2c(NCC3CC3)ncnc12	3.39 µM
CN1CCc2c(c3ccccc3n2Cc2ccccc2)C1 [mebhydrolin]	> 10 µM
C[C@]12CC[C@H]3[C@@H](CC[C@]4(O)C[C@@H](O)CC[C@]34C=O)[C@@]1(O)CC[C@@H]2C1=CC(=O)OC1	0.975 µM
O=C(Nc1ccccc1-c1cn2c(CN3CCNCC3)csc2n1)c1cnc2ccccc2n1	3.05 µM
CCOc1c2c(c(OCC)c3ccccc13)C(=O)N(c1ccc(CC(=O)NS(=O)(=O)c3ccccc3)cc1)C2	> 10 µM
OC[C@@H](O)[C@H]1O[C@@H]2O[C@H](C(Cl)(Cl)Cl)O[C@@H]2[C@H]1O	> 10 µM
NS(=O)(=O)Cc1noc2ccccc12 [zonisamide]	> 10 µM
O=C(C1CC1)N1CC[C@@H](Cc2n[nH]c(=O)n2-c2ccc(-c3ccc4occc4c3)cc2)C1	> 10 µM
O=C(Nc1ccc2c(O)cc(S(=O)(=O)O)cc2c1)Nc1ccc2c(O)cc(S(=O)(=O)O)cc2c1	> 10 µM
C[C@@H]1C/C=C/C=C/C=C/C=C/[C@H](O[C@@H]2O[C@H](C)[C@@H](O)[C@H](N)[C@@H]2O)C[C@@H]2O[C@](O)(C[C@@H](O)C[C@H]3O[C@@H]3/C=C/C(=O)O1)C[C@H](O)[C@H]2C(=O)O	> 10 µM
CCCCN1CCC(CCC(=O)c2cc(Cl)c(N)cc2OC)CC1	> 10 µM
CCCN1CCCC(c2cccc(O)c2)C1 (stereo in doubt)	> 10 µM
N#Cc1ccccc1-c1cc(-c2ccccn2)cn(-c2ccccc2)c1=O	> 10 µM
CCCCCN(CCCOC)C(=O)[C@@H](CCC(=O)O)NC(=O)c1ccc(Cl)c(Cl)c1 [dexloxiglumide]	> 10 µM
CN1CCN(c2cccc(Nc3nc4c(-c5ccc(S(C)(=O)=O)cc5)cccn4n3)c2)CC1	> 10 µM
Cc1cc2c(F)c(Oc3ncnn4cc(OC[C@@H](C)OC(=O)[C@H](C)N)c(C)c34)ccc2[nH]1 [brivanib-alaninate]	> 10 µM
CN(C)C(=N)NC(=N)N	> 10 µM
Cc1cccc(C)c1NC(=O)CC12CCCN1CCC2 [pilsicainide]	> 10 µM
C=CC(=O)Nc1cc(Nc2nccc(-c3c[nH]c4ccccc34)n2)c(OC)cc1N(C)CCN(C)C	0.563 µM
CC(C)NCC(O)c1ccc(N)c(C#N)c1 (stereo not given)	> 10 µM
O=C(O)COc1cccc(CN(Cc2ccc(-n3cccn3)cc2)S(=O)(=O)c2cccnc2)c1	> 10 µM
C[C@@H]1CN(CC(=O)Nc2ccc3c(c2)Cc2cccc(-c4cc(=O)cc(N5CCOCC5)o4)c2S3)C[C@H](C)O1	3.48 µM
N[C@@H](CS(=O)O)C(=O)O	> 10 µM

---

Tested on: U2OS
Test: cell viability relative to DMSO; higher = less toxic
Conditions: 72 h; 10000 nM
Catalogue of cell viability values
recorded.metric: cell viability

molecule	target.under.test	recorded.metric	assay.value
O=C(O)CCc1ccc(NCc2cccc3c2CCCN3CCOc2ccccc2)cc1F	U2OS	cell viability	104%
CN1CCN(C(=O)C2C(C(=O)O)[C@H]3CC[C@@H]2O3)CC1 (some centres undefined)	U2OS	cell viability	95.6%
CCCCCCCCC(=O)NCc1cc(OC)c(O)cc1I [6-iodo-nordihydrocapsaicin]	U2OS	cell viability	92.5%
Cc1ccc(-c2nn(C(C)(C)C)c3ncnc(N)c23)cc1	U2OS	cell viability	55%
COc1cccc(C=NCCN=Cc2cccc(OC)c2[O-])c1[O-].[Cl-].[Mn+3]	U2OS	cell viability	99%
NC(=O)CN1CC[C@@H](NC(=O)[C@@H]2CCCN2)C1=O	U2OS	cell viability	95.2%
CC(C)(Sc1ccc(CCN(CCCCC2CCCCC2)C(=O)NC2CCCCC2)cc1)C(=O)O	U2OS	cell viability	98.2%
O=C1CN(/N=C/c2ccc(-c3ccc([N+](=O)[O-])cc3)o2)C(=O)N1	U2OS	cell viability	95.6%
CC[C@H]1OC(=O)[C@H](C)[C@@H](O[C@H]2C[C@@](C)(OC)[C@@H](O)[C@H](C)O2)[C@H](C)[C@@H](O[C@@H]2O[C@H](C)C[C@H](N(C)C)[C@H]2O)[C@](C)(O)C[C@@H](C)C(=O)[C@H](C)[C@@H](O)[C@]1(C)O	U2OS	cell viability	101%
